Molecular target: human TLR8 (Homo sapiens)
Construct: host or cells: HEK-293, then stably transfected with pNiFty2(NF-kappaB)-luciferase reporter
Sequence (Q9NR97 27-1041): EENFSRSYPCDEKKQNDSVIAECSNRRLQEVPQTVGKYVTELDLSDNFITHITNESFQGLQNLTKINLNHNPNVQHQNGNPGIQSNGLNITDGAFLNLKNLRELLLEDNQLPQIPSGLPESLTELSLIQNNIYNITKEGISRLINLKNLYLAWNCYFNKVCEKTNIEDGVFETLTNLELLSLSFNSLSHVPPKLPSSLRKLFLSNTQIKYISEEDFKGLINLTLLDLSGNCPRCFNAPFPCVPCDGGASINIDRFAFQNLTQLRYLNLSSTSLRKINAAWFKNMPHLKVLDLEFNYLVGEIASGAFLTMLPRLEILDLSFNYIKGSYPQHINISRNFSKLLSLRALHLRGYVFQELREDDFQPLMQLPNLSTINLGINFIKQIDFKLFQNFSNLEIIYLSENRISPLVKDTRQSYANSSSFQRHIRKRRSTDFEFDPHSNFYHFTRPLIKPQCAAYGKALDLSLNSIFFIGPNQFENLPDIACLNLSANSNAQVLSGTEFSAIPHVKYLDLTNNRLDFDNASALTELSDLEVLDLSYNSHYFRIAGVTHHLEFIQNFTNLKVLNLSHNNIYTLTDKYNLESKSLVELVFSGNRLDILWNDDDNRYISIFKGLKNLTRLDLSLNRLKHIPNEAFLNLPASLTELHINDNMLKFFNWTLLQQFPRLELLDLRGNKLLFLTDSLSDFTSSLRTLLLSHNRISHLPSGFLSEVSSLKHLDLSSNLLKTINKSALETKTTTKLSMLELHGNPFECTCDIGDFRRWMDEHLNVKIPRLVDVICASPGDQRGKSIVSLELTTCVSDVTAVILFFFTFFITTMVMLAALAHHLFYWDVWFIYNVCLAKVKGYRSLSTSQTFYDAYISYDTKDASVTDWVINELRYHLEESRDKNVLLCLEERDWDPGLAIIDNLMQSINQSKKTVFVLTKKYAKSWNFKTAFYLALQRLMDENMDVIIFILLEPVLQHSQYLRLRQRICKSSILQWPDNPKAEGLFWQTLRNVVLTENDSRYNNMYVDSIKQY
Assay: HEK-293 human TLR8 NF-kappaB luciferase reporter assay (CL097)
Type: cell-based
Details: HEK-293 assay format; read-out: HEK/hTLR8 IC50
valueType: IC50 (nM)
Number only, in nM; omit the unit.

Request: IC50, test system human TLR8 (Homo sapiens), entry C[C@@H]1CN(c2ccc(C#N)c3ncccc23)C[C@H](CNC2CCC(O)CC2)O1 (stereo partly shown)
122

Request: IC50, test system human TLR8 (Homo sapiens), entry COc1ccc(N2C[C@@H](C)O[C@@H](C)C2)c2cccnc12
11

Request: IC50, test system human TLR8 (Homo sapiens), entry C[C@@H]1CN(c2ccc(C#N)c3ncccc23)C[C@H](CN2C[C@H](C)NC[C@H]2C)O1
2.9

Request: IC50, test system human TLR8 (Homo sapiens), entry C[C@@H]1CN(c2ccc(C#N)c3ncccc23)C[C@H](CN2CCC(c3ccccc3)C2)O1 (stereo partly shown)
46

----------
Biological target: Human TLR7 (Homo sapiens)
Construct: stably and individually express human TLR4, TLR7 or TLR9 full-length ORF cDNAs; host or cells: HEK-293 (ATCC) with ELAM-1 NF-kappaB luciferase reporter
Sequence (Q9NYK1 27-1049): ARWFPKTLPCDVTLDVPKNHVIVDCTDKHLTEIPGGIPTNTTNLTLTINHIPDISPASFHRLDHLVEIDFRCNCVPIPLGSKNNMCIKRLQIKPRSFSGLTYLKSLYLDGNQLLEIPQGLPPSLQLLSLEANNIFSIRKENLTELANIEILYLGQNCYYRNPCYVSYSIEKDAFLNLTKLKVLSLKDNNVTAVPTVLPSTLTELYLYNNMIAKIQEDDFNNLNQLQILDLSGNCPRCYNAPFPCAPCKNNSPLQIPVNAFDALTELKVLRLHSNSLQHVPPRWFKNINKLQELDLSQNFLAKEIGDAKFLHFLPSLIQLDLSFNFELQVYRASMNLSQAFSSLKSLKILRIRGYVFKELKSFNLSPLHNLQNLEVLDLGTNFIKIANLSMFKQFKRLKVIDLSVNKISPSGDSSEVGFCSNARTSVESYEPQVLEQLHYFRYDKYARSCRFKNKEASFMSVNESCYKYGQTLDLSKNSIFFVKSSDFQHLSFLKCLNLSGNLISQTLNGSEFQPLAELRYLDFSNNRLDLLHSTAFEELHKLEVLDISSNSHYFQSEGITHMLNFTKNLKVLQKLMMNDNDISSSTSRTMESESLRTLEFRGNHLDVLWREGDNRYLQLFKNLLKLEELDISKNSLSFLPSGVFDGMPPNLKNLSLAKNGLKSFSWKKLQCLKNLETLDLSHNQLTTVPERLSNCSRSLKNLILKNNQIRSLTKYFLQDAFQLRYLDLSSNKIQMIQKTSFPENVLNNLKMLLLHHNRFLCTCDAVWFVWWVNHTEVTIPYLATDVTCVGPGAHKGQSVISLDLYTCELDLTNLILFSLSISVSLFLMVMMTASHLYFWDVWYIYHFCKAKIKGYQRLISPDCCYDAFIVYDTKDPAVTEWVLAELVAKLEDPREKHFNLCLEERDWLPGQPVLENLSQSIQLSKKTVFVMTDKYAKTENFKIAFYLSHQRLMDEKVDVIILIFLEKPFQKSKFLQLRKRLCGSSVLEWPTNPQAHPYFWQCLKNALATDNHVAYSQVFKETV
Test: HEK-293 human TLR7 NF-kappaB luciferase reporter assay (CL097)
Type: cell-based
Settings: HEK-hTLR7; CL097 3 ug/ml; average of three tests; read-out: IC50 average
Protocol: Effects on mouse TLR7 were also compared. Cells were stimulated overnight with TLR7/8 agonist CL097 at pre-determined ED70-80: 3 ug/ml for HEK-hTLR7, 1.5 ug/ml for HEK-mTLR7 and 12 ug/ml for HEK-hTLR8, before reading luminescence intensity. Three tests were performed and IC50 value was determined using Graphpad Prism 6 nonlinear regression curve fit. […]
valueType: IC50 (µM)
Number only, in µM; omit the unit.

Request: IC50, test system Human TLR7 (Homo sapiens), entry CCN(CCO)CCCC(C)Nc1ccnc2cc(Cl)ccc12 (stereo not shown) [HCQ, hydroxychloroquine, reference compound]
9.1
